RUN_PARAMETERS: 298.15 K; 101.33 kPa; Liquid; Pycnometric method

- COMPOUND: "CCCO"
  UNITS: "kg/m3"
  mass density: 799.6
- COMPOUND: "CCO"
  UNITS: "kg/m3"
  mass density: 785.2
- COMPOUND: "CC(C)O"
  UNITS: "kg/m3"
  mass density: 780.8
- COMPOUND: "CCCCO"
  UNITS: "kg/m3"
  mass density: 805.7
- COMPOUND: "CC(C)CO"
  UNITS: "kg/m3"
  mass density: 797.8
- COMPOUND: "CO"
  UNITS: "kg/m3"
  mass density: 786.6
- COMPOUND: "CCC(C)O (configuration not stated)"
  UNITS: "kg/m3"
  mass density: 802.3

* * *

RUN_PARAMETERS: Liquid; Ebulliometric method (Recirculating still)
Parameter Normal boiling temperature: see the listing below.

- COMPOUND: "CO"
  Normal boiling temperature (°C): 64.49
- COMPOUND: "CCO"
  Normal boiling temperature (°C): 78.31
- COMPOUND: "CCC(C)O (stereo unspecified)"
  Normal boiling temperature (°C): 99.48
- COMPOUND: "CC(C)O"
  Normal boiling temperature (°C): 82.2
- COMPOUND: "CC(C)CO"
  Normal boiling temperature (°C): 107.77
- COMPOUND: "CCCO"
  Normal boiling temperature (°C): 97.06

Every entry's value here was drawn from the NIST ThermoML archive (doi:10.1021/je7007582).
